Conditions: 298.15 K; 100 kPa; Liquid; Frequency=2 MHz; Linear variable-path acoustic interferometer
± gives the expanded uncertainty stated by the source.
Below: a set of entries, each annotated with reported speed of sound.

{"columns": ["molecule", "speed of sound"],
 "data": [
  ["Cc1cccc(Cl)c1 [3-chlorotoluene]", "1296.5 ± 4 m/s"],
  ["Cc1ccccc1Cl [2-chlorotoluene]", "1299.7 ± 4 m/s"],
  ["CCCCCCCCCO [nonan-1-ol]", "1364.7 ± 4 m/s"],
  ["ClCCCl [1,2-dichloroethane]", "1194.2 ± 3.9 m/s"],
  ["Cc1ccc(Cl)cc1 [4-chlorotoluene]", "1288.2 ± 4 m/s"]
]}

----------
Details: 298.15 K; 100 kPa; Liquid; Vibrating tube method
recorded-endpoint: mass density (kg/m3)

{"columns": ["smiles-representation", "result-value"],
 "data": [
  ["Cc1ccc(Cl)cc1", 1065],
  ["ClCCCl", 1246],
  ["Cc1cccc(Cl)c1", 1067],
  ["Cc1ccccc1Cl", 1077],
  ["CCCCCCCCCO", 824]
]}

----------
Each record here notes measured speed of sound.
Conditions: 303.15 K; 100 kPa; Liquid; Frequency=2 MHz; Linear variable-path acoustic interferometer
± gives the expanded uncertainty stated by the source.
recorded-endpoint: speed of sound

{"columns": ["smiles-representation", "recorded-endpoint", "result-value"],
 "data": [
  ["ClCCCl", "speed of sound", "1174.1 ± 3.9 m/s"],
  ["Cc1cccc(Cl)c1", "speed of sound", "1279.5 ± 4 m/s"],
  ["Cc1ccccc1Cl", "speed of sound", "1283.9 ± 4 m/s"],
  ["Cc1ccc(Cl)cc1", "speed of sound", "1270 ± 3.9 m/s"],
  ["CCCCCCCCCO", "speed of sound", "1348.1 ± 4 m/s"]
]}
